Hey, just so you know, these numbers are from patent US20210188980A1.

- MEASUREMENT TARGET: T1, recombinant human LAG-3-his protein (Novoprotein) (human, UniProt P18627 23-450)
- T1 construct: Bought; also called huLAG-3; not shown: His tag
- T1 sequence (looked up): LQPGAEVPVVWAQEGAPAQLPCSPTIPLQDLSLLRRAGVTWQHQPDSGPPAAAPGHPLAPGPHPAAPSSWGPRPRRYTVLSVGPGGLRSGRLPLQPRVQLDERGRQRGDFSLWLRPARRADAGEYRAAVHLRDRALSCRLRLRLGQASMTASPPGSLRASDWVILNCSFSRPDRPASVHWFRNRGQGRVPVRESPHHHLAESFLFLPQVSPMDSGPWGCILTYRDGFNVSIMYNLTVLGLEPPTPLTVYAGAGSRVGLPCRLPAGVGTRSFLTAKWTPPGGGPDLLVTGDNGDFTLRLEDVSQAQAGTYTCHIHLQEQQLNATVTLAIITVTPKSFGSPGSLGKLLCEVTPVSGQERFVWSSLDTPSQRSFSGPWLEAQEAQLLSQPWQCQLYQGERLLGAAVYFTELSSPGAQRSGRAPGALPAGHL
- MEASUREMENT DESCRIPTION: BLI Octet, Ab on AHC sensor, huLAG-3-his; test group 2
For each entry below, report its off-rate ratio to that of mAb747c value.
Field: numeric (%). Do not append units.

get_value(item= mAb747c (antibody, V domains shown, also called mAb717c) VH: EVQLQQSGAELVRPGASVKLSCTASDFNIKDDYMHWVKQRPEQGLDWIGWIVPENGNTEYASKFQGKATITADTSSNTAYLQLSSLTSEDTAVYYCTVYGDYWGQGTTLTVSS VL: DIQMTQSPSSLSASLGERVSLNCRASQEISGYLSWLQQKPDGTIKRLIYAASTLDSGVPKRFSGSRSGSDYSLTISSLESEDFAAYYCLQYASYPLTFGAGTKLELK , readout=off-rate ratio to that of mAb747c) returns 100

// sample HumAb747-51 (antibody, human IgG1, V domains shown, humanized mAb747; human IgG1/kappa constant domains) VH: EVQLVQSGAEVKKPGATVKISCKVSDFNIKDDYMHWVQQAPGKGLEWIGWIVPENGNTEYASKFQGRVTITADTSTDTAYLELSSLRSEDTAVYYCTVYGDYWGQGTTVTVSS VL: DIQMTQSPSSLSASVGDRVTITCRASQEISGYLSWLQQKPGGAIKRLIYAASTLDSGVPSRFSGSRSGSDYTLTISSLQPEDFADYYCLQYASYPLTFGQGTKLELK , its off-rate ratio to that of mAb747c was 888

Field off-rate ratio to that of mAb747c (entry HumAb747-54 (antibody, human IgG1, V domains shown, humanized mAb747; human IgG1/kappa constant domains) VH: EVQLVQSGAEVKKPGATVKLSCTASDFNIKDDYMHWVKQAPGKGLEWIGWIVPENGNTEYASKFQGRATITADTSTNTAYLELSSLRSEDTAVYYCTVYGDYWGQGTTVTVSS VL: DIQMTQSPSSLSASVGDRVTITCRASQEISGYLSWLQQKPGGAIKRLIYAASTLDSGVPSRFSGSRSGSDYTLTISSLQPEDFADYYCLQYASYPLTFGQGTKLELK ) reads 314
